Target Or Test System: Transcription factor E2F1 (Homo sapiens) (UniProt Q01094)
Sequence (Q01094 whole entry, looked up): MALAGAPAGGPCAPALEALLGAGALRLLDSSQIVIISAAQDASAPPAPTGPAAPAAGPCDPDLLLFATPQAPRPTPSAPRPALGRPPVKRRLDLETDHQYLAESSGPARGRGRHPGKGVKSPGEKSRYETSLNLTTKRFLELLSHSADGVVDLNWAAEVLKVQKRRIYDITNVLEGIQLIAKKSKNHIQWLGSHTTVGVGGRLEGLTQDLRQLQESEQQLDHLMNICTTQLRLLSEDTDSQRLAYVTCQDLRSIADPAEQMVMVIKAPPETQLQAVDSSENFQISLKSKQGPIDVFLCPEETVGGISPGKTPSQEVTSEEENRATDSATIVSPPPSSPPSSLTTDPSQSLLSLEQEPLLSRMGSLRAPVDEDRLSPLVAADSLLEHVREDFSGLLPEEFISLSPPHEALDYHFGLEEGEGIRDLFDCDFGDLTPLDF
Run Description: ATG_E2F_CIS: Attagene CIS-FACTORIAL HepG2 Assay for human E2F Transcription Factor 1 (AID 2282935)
Particulars: HepG2 Attagene cis-reporter, E2F reporter RNA transcripts; actives raise or lower the signal
Active and inactive are the calls of the source. How the source made its calls: active means hit-call score of the fitted dose curve at least 0.9, where 1 is the maximum; inactive means score below 0.9.
// one of active, inactive, no free text

Some solved entries appear below for comparison.
CCCC(C)C=O (stereo not drawn) | inactive
COc1c(Cl)c(Cl)c(Cl)c(Cl)c1Cl | inactive

Per the records of this test, what outcome belongs to `COc1cccc(OC)c1` ? inactive

Per the records of this test, what outcome belongs to `CCCCCCCCCCCCCCCC(=O)O` ? inactive

Per the records of this test, what outcome belongs to C=CC(C)(CCC=C(C)C)OC=O (stereo not drawn) ? inactive

* * *

Run Description: ATG_RORE_CIS: Attagene CIS-FACTORIAL HepG2 Assay for human RAR-related Orphan Receptor Element (RORE) (AID 2282959)
Particulars: HepG2 Attagene cis-factorial RORE reporter, mRNA; actives raise or lower the signal
Activity calls are given as the source filed them. Rule for the calls: active = hit-call score of the fitted dose curve at least 0.9, where 1 is the maximum; inactive = score below 0.9.
// one of Yes = active, No = inactive, no free text

Some solved entries appear below for comparison.
CC(C)=CCO | No
c1ccc(CCCc2ccccn2)cc1 | No

Per the records of this test, what outcome belongs to `NNc1nc(-c2ccc(N)cc2)cs1` ? No

Per the records of this test, what outcome belongs to `CC1=CC(=O)NS(=O)(=O)O1` ? No

Per the records of this test, what outcome belongs to `COc1ccc(Nc2ccccc2)c(C)c1` ? Yes

Per the records of this test, what outcome belongs to `Clc1nc(C(Cl)(Cl)Cl)c(Cl)c(Cl)c1Cl` ? No

Per the records of this test, what outcome belongs to `CC(C)=CCC[C@H](C)CC=O` ? No

Per the records of this test, what outcome belongs to `CC(C)(C#N)c1cc(Cn2cncn2)cc(C(C)(C)C#N)c1` ? No

Per the records of this test, what outcome belongs to `CCCc1c(OCCCOc2ccc(OCC(=O)O)cc2)ccc(C(C)=O)c1O` ? Yes

Per the records of this test, what outcome belongs to C=CC(C)(O)CCC=C(C)CCC=C(C)C (configuration not stated) ? No

Per the records of this test, what outcome belongs to `O=C(O)c1cn(C2CC2)c2cc(N3CCNCC3)c(F)cc2c1=O` ? No

Per the records of this test, what outcome belongs to `CC(=O)[C@H]1CC[C@H]2[C@@H]3CC=C4C[C@@H](O)CC[C@]4(C)[C@H]3CC[C@]12C` ? No

Per the records of this test, what outcome belongs to `CCCCCCOC(=O)CCCCC` ? No

Per the records of this test, what outcome belongs to `CC(=O)Nc1ccc(CC(=O)O)cc1` ? No

Per the records of this test, what outcome belongs to `Clc1cccc(Cl)n1` ? No

Per the records of this test, what outcome belongs to `CCCCC[Si](OCC)(OCC)OCC` ? No

Per the records of this test, what outcome belongs to `CC1(C)[C@H](C(=O)OCc2cccc(Oc3ccccc3)c2)[C@@H]1C=C(Cl)Cl` ? No

* * *

Run Description: ATG_TAL_CIS: Attagene CIS-FACTORIAL HepG2 Assay for human TAL Basal Promoter (AID 2282966);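 further: background control endpoint measuring basal TAL promoter reporter mRNA not a specific factor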
Particulars: HepG2 Attagene cis-factorial TAL promoter reporter; actives raise or lower the signal
The source made the active and inactive calls. The calls were made as follows: active = hit-call score of the fitted dose curve at least 0.9, where 1 is the maximum; inactive = score below 0.9.
Measurement Label: AC50

Some solved cases for reference:
CC(=O)Nc1ccc(C)cc1C | inactive
CC1(C)OC[C@@H]2O[C@@]3(C(=O)O)OC(C)(C)O[C@H]3[C@@H]2O1 | inactive
OCC(CO)(CO)COCC(CO)(CO)CO | inactive
CN(C)CCCN | inactive
CC1CCC(C(C)CS)CC1S (stereo unspecified) | inactive
C=CC(C)(O)CCC=C(C)CCC=C(C)C (stereo unspecified) | 166 µM (active)
CCC(C)(O)CCC=C(C)C (stereo unspecified) | inactive
CCCCCCCCCCCCCCCCCC(=O)OCC(CC)CCCC (stereo unspecified) | inactive
O=C1c2ccccc2C(=O)N1SC1CCCCC1 | 60.1 µM (active)
CCCCCCOC(=O)CC | inactive

// AC50 lookup, key: CCCC(C)C=O (stereo unspecified) inactive

// AC50 lookup, key: `COc1cc(C)cc(O)c1` inactive

// AC50 lookup, key: C=CC(C)(CCC=C(C)C)OC=O (stereo unspecified) inactive
